Target: T1, TP-51 peptide (aa 352-414 of SEQ ID NO:1) (human)
T1 construct: Synthetic peptide (Pepscan)
T1 peptide: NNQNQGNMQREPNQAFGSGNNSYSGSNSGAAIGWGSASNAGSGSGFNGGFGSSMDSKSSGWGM
Assay: SPR 8K, mAb captured, TP-51 injected
quantity measured: pKd
Please note pKd is a logarithmic value: minus log10 of concentration in mol/L. Answer with that number alone.

Entry under test: hACI-7069-633B12-Ab1_H20L18 (IgG4) (antibody, V domains shown) VH: EVQLVQSGAEVKKPGASVKVSCKTSGFTFTEYSMHWVRQAPGQRLEWIGGINPGNAGTSYNQKFKGRVTITVDTSASTAYMELSSLRSEDTAVYYCARESWGQGTTVTVSS VL: DVVMTQSPLSLPVTLGQPASISCKSSQSLLHSDAKTYLNWLQQRPGQSPRRLIYLVSKLDSRVPDRFSGSGSGTDFTLKISRVEAEDLGVYYCFQGTHFPHTFGQGTKLEIK . Its pKd was 8.68
